- target or test system: PAFR (Cavia porcellus)
- assay info: biochemical
measured property: Ki (nM)
State the answer as a number, implicitly in nM.

Input CC1C(=O)OC2C(O)C34C5CC(C(C)(C)C)C36C(OC(=O)C6O)OC4(C(=O)O5)C12O (stereo not shown) [GB (2), ginkgolide B, reference compound] . Output Ki: 560

Input CC1C(=O)OC2C(O)C34C5OC(=O)C3(OC3OC(=O)C(O)C34C(C(C)(C)C)C5O)C12O (stereo not shown) [GC (3), ginkgolide C, reference compound] . Output Ki: 12600

Input CC1C(=O)OC2C(O)C34C5CC(C(C)(C)C)C36C(OC(=O)C6OCc3ccc(C6(C(F)(F)F)N=N6)cc3)OC4(C(=O)O5)C12O (stereo not shown) . Output Ki: 150

Input CC1C(=O)OC2C(OS(=O)(=O)c3cccc4c(N(C)C)cccc34)C34C5OC(=O)C3(OC3OC(=O)C(OCc6ccc(C(=O)c7ccccc7)cc6)C34C(C(C)(C)C)C5O)C12O (stereo not shown) [Compound 10b] . Output Ki: 960

Input CC1C(=O)OC2C(O)C34C5CC(C(C)(C)C)C36C(OC(=O)C6OCc3c(F)c(F)c(N=[N+]=[N-])c(F)c3F)OC4(C(=O)O5)C12O (stereo not shown) [Compound 8c, 10-O-tetrafluorobenzylazide ginkgolide B] . Output Ki: 90

Input CC1C(=O)OC2C(O)C34C5OC(=O)C3(OC3OC(=O)C(OCc6c(F)c(F)c(N=[N+]=[N-])c(F)c6F)C34C(C(C)(C)C)C5O)C12O (stereo not shown) [Compound 9c, 10-O-tetrafluorobenzylazide ginkgolide C] . Output Ki: 790

Input COC1C(=O)OC2OC34C(=O)OC5CC(C(C)(C)C)C21C53C(O)C1OC(=O)C(C)C14O (stereo not shown) [Compound 14, 10-O-Methyl ginkgolide B] . Output Ki: 3160

====

- target or test system: PAFR (Cavia porcellus)
- Assay type: binding, PAFR transgenic mice
- condition details: Inhibition of [^3H]-WEB 2086 binding; means of two independent experiments performed in triplicate; read-out: Ki
measured property: Ki (µM)
State the answer as a number, implicitly in µM.

Input CC1C(=O)OC2C(O)C34C5CC(C(C)(C)C)C36C(OC(=O)C6OCc3ccccc3)OC4(C(=O)O5)C12O (stereo not shown) [10-OBn-GB (28), 10-O-Benzyl Ginkgolide B] . Output Ki: 0.12

Input CC(=O)OC1C(C(C)(C)C)C23C(OC(=O)C2O)OC24C(=O)OC1C32C(O)C1OC(=O)C(C)C14O (stereo not drawn) [7α-OAc-GB (17), 7α-O-Acetate Ginkgolide B] . Output Ki: 7.84

Input CNC1C(C(C)(C)C)C23C(OC(=O)C2O)OC24C(=O)OC1C32C(O)C1OC(=O)C(C)C14O (stereo not drawn) [7α-NHMe-GB (25), 7α-N-Methylamino Ginkgolide B] . Output Ki: 0.61

Input CCNC1C(C(C)(C)C)C23C(OC(=O)C2O)OC24C(=O)OC1C32C(O)C1OC(=O)C(C)C14O (stereo not drawn) [7α-NHEt-GB (26), 7α-N-Ethylamino Ginkgolide B] . Output Ki: 1.62

Input CC1C(=O)OC2C(O)C34C5OC(=O)C3(OC3OC(=O)C(OCc6ccccc6)C34C(C(C)(C)C)C5O)C12O (stereo not drawn) [10-OBn-epi-GC (31), 10-O-Benzyl-7-epi-ginkgolide C] . Output Ki: 0.6

Input CC1C(=O)O[C@H]2C(O)C34C5OC(=O)[C@@]3(OC3OC(=O)[C@H](O)C34C(C(C)(C)C)[C@@H]5N=[N+]=[N-])[C@@]12O (stereo partly drawn) [7α-N3-GB (20), 7α-Azido Ginkgolide B] . Output Ki: 0.55

Input CC1C(=O)OC2C(O)C34C5OC(=O)C3(OC3OC(=O)C(OCc6ccccc6)C34C(C(C)(C)C)C5O)C12O (stereo not shown) [10-OBn-GC (29), 10-O-Benzyl Ginkgolide C] . Output Ki: 1.67

====

- target or test system: PAFR (Cavia porcellus, UniProt P21556)
- Sequence (P21556 whole entry): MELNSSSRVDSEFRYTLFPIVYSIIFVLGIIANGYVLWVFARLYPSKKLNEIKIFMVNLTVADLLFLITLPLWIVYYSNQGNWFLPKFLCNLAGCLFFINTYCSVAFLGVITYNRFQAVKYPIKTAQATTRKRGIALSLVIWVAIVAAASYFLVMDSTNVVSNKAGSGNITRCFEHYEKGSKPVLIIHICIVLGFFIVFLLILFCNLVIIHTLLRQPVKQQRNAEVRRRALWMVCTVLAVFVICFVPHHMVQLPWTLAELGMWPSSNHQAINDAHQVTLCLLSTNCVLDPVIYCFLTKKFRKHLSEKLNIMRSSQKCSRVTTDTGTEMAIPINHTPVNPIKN
- Assay type: binding, PAFR transgenic mice
- condition details: read-out: Ki
measured property: Ki (nM)
State the answer as a number, implicitly in nM.

Short answer on PAFR (Cavia porcellus, UniProt P21556) for CC1C(=O)OC2C(O)C34C5CC(C(C)(C)C)C36C(OC(=O)C6O)OC4(C(=O)O5)C12O (stereo not shown) [GB (2), ginkgolide B, reference compound] , Ki: 880

====

- target or test system: PAFR (Cavia porcellus, UniProt P21556)
- Assay type: binding, PAFR transgenic mice
- condition details: Ki, Inhibition of [^3H]-WEB 2086 binding; means of two independent experiments performed in triplicate
measured property: Ki

Short answer on PAFR (Cavia porcellus, UniProt P21556) for CC1C(=O)OC2C(O)C34C5OC(=O)C3(OC3OC(=O)C(OCc6ccccc6)C34C(C(C)(C)C)C5F)C12O (stereo not drawn) [10-OBn-7α-F-GB (30), 10-O-Benzyl-7α-fluoro Ginkgolide B] , Ki: 100 nM

Short answer on PAFR (Cavia porcellus, UniProt P21556) for CC1C(=O)OC2C(O)C34C5OC(=O)C3(OC3OC(=O)C(O)C34C(C(C)(C)C)C5OC(=O)Cc3ccccc3)C12O (stereo not drawn) [7α-OCOCH2Ph-GB (19), 7α-O-Phenylacetate Ginkgolide B] , Ki: 2400 nM

Short answer on PAFR (Cavia porcellus, UniProt P21556) for CNC1C(C(C)(C)C)C23C(OC(=O)C2O)OC24C(=O)OC1C32C(O)C1OC(=O)C(C)C14O (stereo not drawn) [7α-NHMe-GB (25), 7α-N-Methylamino Ginkgolide B] , Ki: 550 to 1620 nM

Short answer on PAFR (Cavia porcellus, UniProt P21556) for CCNC1C(C(C)(C)C)C23C(OC(=O)C2O)OC24C(=O)OC1C32C(O)C1OC(=O)C(C)C14O (stereo not drawn) [7α-NHEt-GB (26), 7α-N-Ethylamino Ginkgolide B] , Ki: 550 to 1620 nM

Short answer on PAFR (Cavia porcellus, UniProt P21556) for CC1C(=O)OC2C(O)C34C5OC(=O)C3(OC3OC(=O)C(O)C34C(C(C)(C)C)C5O)C12O (stereo not drawn) [7-epi-GC (18), 7-Epi-ginkgolide C] , Ki: 4260 nM
